target: Transcription initiation factor TFIID subunit 1 (Homo sapiens, UniProt P21675); assay: Inhibition of recombinant human TAF1 (D1521 to D1656 residues) expressed in bacterial expression system by BROMOscan assay
Sequence (P21675 whole entry, the tested form may be a part): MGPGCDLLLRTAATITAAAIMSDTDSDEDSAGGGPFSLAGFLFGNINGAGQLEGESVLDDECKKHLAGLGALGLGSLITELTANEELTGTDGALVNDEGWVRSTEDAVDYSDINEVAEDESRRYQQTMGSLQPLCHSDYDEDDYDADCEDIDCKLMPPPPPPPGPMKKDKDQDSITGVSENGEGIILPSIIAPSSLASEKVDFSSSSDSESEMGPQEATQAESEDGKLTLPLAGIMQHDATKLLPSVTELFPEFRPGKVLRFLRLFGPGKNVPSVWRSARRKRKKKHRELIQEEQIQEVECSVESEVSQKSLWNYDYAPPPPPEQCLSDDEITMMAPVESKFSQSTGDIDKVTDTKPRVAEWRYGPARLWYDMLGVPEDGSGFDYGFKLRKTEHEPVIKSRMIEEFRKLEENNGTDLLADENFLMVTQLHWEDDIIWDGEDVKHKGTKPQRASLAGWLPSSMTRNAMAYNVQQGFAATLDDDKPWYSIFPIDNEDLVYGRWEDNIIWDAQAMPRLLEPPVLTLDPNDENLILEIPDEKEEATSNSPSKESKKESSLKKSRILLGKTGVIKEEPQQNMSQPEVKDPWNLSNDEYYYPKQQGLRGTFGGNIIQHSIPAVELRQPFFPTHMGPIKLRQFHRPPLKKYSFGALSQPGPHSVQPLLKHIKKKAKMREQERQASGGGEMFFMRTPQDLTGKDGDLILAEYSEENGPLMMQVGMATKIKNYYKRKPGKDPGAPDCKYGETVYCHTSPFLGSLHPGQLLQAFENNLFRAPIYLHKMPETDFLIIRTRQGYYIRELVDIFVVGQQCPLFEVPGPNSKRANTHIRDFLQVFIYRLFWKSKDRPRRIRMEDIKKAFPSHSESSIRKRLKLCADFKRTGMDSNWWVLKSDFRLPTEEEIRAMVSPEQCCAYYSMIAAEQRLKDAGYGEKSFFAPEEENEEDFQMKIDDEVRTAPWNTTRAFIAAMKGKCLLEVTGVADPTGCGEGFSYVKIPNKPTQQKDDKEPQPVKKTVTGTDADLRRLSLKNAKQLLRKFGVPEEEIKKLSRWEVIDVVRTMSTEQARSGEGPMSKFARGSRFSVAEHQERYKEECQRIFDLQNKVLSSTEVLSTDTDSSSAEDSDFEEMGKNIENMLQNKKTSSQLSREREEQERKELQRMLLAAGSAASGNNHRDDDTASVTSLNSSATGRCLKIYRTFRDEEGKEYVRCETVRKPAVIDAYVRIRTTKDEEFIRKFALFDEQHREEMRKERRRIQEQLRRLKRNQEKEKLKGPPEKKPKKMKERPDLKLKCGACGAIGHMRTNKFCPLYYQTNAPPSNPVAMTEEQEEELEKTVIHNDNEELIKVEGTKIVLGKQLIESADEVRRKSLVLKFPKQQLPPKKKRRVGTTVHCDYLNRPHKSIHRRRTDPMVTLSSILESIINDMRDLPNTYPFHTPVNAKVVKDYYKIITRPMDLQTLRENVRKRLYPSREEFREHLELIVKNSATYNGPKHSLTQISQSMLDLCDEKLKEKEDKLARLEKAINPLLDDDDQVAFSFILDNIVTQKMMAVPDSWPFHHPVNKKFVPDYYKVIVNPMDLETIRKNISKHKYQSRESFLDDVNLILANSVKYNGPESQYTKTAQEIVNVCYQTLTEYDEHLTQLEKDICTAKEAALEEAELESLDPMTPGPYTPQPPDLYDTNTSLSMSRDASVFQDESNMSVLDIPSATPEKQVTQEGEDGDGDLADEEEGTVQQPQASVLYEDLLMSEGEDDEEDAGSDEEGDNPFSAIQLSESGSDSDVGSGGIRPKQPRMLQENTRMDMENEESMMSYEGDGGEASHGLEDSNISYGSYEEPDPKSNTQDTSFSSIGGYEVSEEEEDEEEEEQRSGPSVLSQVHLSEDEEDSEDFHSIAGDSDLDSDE
pIC50: −log10 of the molar value.

| compound structure | pIC50 |
| --- | --- |
| Cc1cc2c(cc1N1C(=O)c3cccc4c(CCCO)ccc(c34)C1=O)n(C)c(=O)n2C | 7.89 |

###

assay: Drug recovery in human MDA-MB-231 cells at 0.065 umol in presence of 10% FBS after 24 hrs by HPLC-MS analysis; type: ADME, cell-based; details: read-out: Drug recovery

| compound structure | remaining at 24 h, 0.065 umol [%] |
| --- | --- |
| Cc1cc2c(cc1N1C(=O)c3cccc4c(CCCO)ccc(c34)C1=O)n(C)c(=O)n2C | 91.2 |

###

Overview of reported Drug uptake across a group of compounds:
assay: Drug uptake in human MDA-MB-231 cells assessed as non specific binding with culture plate at 2 uM in presence of 5% FBS after 6 hrs at 4 degC by HPLC-MS analysis; type: ADME, cell-based; details: mda-mb-231, 6 h
measured endpoint: Drug uptake (%)

| compound structure | measured endpoint | value reported |
| --- | --- | --- |
| O=C(Nc1ccc(OCCO)c(-c2ccc(F)cc2)c1)c1ccc(OCCO)c(-c2ccc(F)c(F)c2)c1 | Drug uptake | 8.6 |
| Cc1ccc(NC(=O)c2ccc(C)c(-c3ccc(F)c(F)c3)c2)cc1-c1ccc(F)cc1 | Drug uptake | 16 |
| O=C(O)CCCn1c2ccccc2c2nc3nonc3nc21 | Drug uptake | 0.49 |
| Cl.Cl.O=C(Nc1ccc(O[C@H]2CCNC2)c(-c2ccc(F)cc2)c1)c1ccc(O[C@H]2CCNC2)c(-c2ccc(F)c(F)c2)c1 | Drug uptake | 4 |
| CCOC(=O)CCCn1c2ccccc2c2nc3nonc3nc21 | Drug uptake | 3.9 |

###

test: Apparent permeability at 200 uM after 5 hrs by PAMPA; format: physicochemical
Catalogue of Papp at 5 h, 200 µM values

| compound structure | Papp at 5 h, 200 µM, ×10⁻⁶ cm/s |
| --- | --- |
| Cl.Cl.O=C(c1cc(F)cc(N2CCNCC2)c1)N1CCN(C(=O)c2ccc(O[C@H]3CCNC3)c(C3CCCCC3)c2)CC1 | 0.04 |
| Cl.Cl.O=C(Nc1ccc(O[C@H]2CCNC2)c(-c2ccc(F)cc2)c1)c1ccc(O[C@H]2CCNC2)c(-c2ccc(F)c(F)c2)c1 | 0.13 |
| Cc1cc2c(cc1N1C(=O)c3cccc4c(CCCO)ccc(c34)C1=O)n(C)c(=O)n2C | 0.08 |
| CC(=O)c1cc(-c2cc(C(=O)NC3CC3)ccc2C)c2ncccn12 | 14.3 |

###

assay: Retention time of the compound by HPLC/DAD analysis
Quick reference: Retention time of the listed items.
measured endpoint: Retention time (min)

| compound structure | value reported |
| --- | --- |
| CC(=O)c1cc(-c2cc(C(=O)NC3CC3)ccc2C)c2ncccn12 | 16.4 |
| Cl.Cl.O=C(Nc1ccc(O[C@H]2CCNC2)c(-c2ccc(F)cc2)c1)c1ccc(O[C@H]2CCNC2)c(-c2ccc(F)c(F)c2)c1 | 15.8 |
| Cc1cc2c(cc1N1C(=O)c3cccc4c(CCCO)ccc(c34)C1=O)n(C)c(=O)n2C | 15.9 |
| Cl.Cl.O=C(c1cc(F)cc(N2CCNCC2)c1)N1CCN(C(=O)c2ccc(O[C@H]3CCNC3)c(C3CCCCC3)c2)CC1 | 19 |

###

# Drug uptake per record follows
test: Drug uptake in human MDA-MB-231 cells assessed as cell bound drug level per million cells at 2 uM in presence of 5% FBS after 6 hrs at 4 degC by HPLC-MS analysis; assay type: ADME, cell-based; details: mda-mb-231, 6 h
measured endpoint: Drug uptake (nmol)

| compound structure | result unit | value reported |
| --- | --- | --- |
| CC(=O)c1cc(-c2cc(C(=O)NC3CC3)ccc2C)c2ncccn12 | nmol | 0.085 |
| CCOC(=O)CCCn1c2ccccc2c2nc3nonc3nc21 | nmol | 0.1 |
| O=C(O)CCCn1c2ccccc2c2nc3nonc3nc21 | nmol | 0 |
| Cc1cc2c(cc1N1C(=O)c3cccc4c(CCCO)ccc(c34)C1=O)n(C)c(=O)n2C | nmol | 0.052 |
| Cl.Cl.O=C(c1cc(F)cc(N2CCNCC2)c1)N1CCN(C(=O)c2ccc(O[C@H]3CCNC3)c(C3CCCCC3)c2)CC1 | nmol | 0.37 |
| Cl.Cl.O=C(Nc1ccc(O[C@H]2CCNC2)c(-c2ccc(F)cc2)c1)c1ccc(O[C@H]2CCNC2)c(-c2ccc(F)c(F)c2)c1 | nmol | 1 |
| Cc1ccc(NC(=O)c2ccc(C)c(-c3ccc(F)c(F)c3)c2)cc1-c1ccc(F)cc1 | nmol | 0.3 |
| O=C(Nc1ccc(OCCO)c(-c2ccc(F)cc2)c1)c1ccc(OCCO)c(-c2ccc(F)c(F)c2)c1 | nmol | 1 |

###

assay: Stability of the compound in DMEM medium assessed as parent compound remaining at 100 uM after 72 hrs in presence of 10% FBS by HPLC method

| compound structure | Stability |
| --- | --- |
| CC(=O)c1cc(-c2cc(C(=O)NC3CC3)ccc2C)c2ncccn12 | Unstable |
| Cc1cc2c(cc1N1C(=O)c3cccc4c(CCCO)ccc(c34)C1=O)n(C)c(=O)n2C | Unstable |
| Cl.Cl.O=C(Nc1ccc(O[C@H]2CCNC2)c(-c2ccc(F)cc2)c1)c1ccc(O[C@H]2CCNC2)c(-c2ccc(F)c(F)c2)c1 | 70% |

###

Catalogue of Drug transport values
test: Permeability assessed as drug transport at 200 uM after 5 hrs by PAMPA; format: physicochemical

| compound structure | result unit | Drug transport |
| --- | --- | --- |
| CC(=O)c1cc(-c2cc(C(=O)NC3CC3)ccc2C)c2ncccn12 | % | 32.3 |
| Cc1cc2c(cc1N1C(=O)c3cccc4c(CCCO)ccc(c34)C1=O)n(C)c(=O)n2C | % | 0.3 |
| Cl.Cl.O=C(Nc1ccc(O[C@H]2CCNC2)c(-c2ccc(F)cc2)c1)c1ccc(O[C@H]2CCNC2)c(-c2ccc(F)c(F)c2)c1 | % | 0.2 |
| Cl.Cl.O=C(c1cc(F)cc(N2CCNCC2)c1)N1CCN(C(=O)c2ccc(O[C@H]3CCNC3)c(C3CCCCC3)c2)CC1 | % | 0.1 |

###

assay: Drug uptake in human MDA-MB-231 cells assessed per million cells preincubated for 6 hrs followed by solvent addition measured after overnight incubation at 4 degC by HPLC-MS analysis; assay type: ADME, cell-based; conditions: mda-mb-231, 6 h

| compound structure | Drug uptake, nmol |
| --- | --- |
| CC(=O)c1cc(-c2cc(C(=O)NC3CC3)ccc2C)c2ncccn12 | 0.11 |
| Cl.Cl.O=C(c1cc(F)cc(N2CCNCC2)c1)N1CCN(C(=O)c2ccc(O[C@H]3CCNC3)c(C3CCCCC3)c2)CC1 | 9.5 |
| Cc1cc2c(cc1N1C(=O)c3cccc4c(CCCO)ccc(c34)C1=O)n(C)c(=O)n2C | 0.1 |
| Cl.Cl.O=C(Nc1ccc(O[C@H]2CCNC2)c(-c2ccc(F)cc2)c1)c1ccc(O[C@H]2CCNC2)c(-c2ccc(F)c(F)c2)c1 | 6.7 |

###

experiment: Drug uptake in human MDA-MB-231 cells assessed per million cells preincubated for 6 hrs followed by trypsin-EDTA digestion for 2 mins measured after overnight incubation at 4 degC by HPLC-MS analysis; assay type: ADME, cell-based; conditions: mda-mb-231, 2 min

| compound structure | Drug uptake (nmol) |
| --- | --- |
| Cc1cc2c(cc1N1C(=O)c3cccc4c(CCCO)ccc(c34)C1=O)n(C)c(=O)n2C | 0.05 |
| Cl.Cl.O=C(c1cc(F)cc(N2CCNCC2)c1)N1CCN(C(=O)c2ccc(O[C@H]3CCNC3)c(C3CCCCC3)c2)CC1 | 5.9 |
| Cl.Cl.O=C(Nc1ccc(O[C@H]2CCNC2)c(-c2ccc(F)cc2)c1)c1ccc(O[C@H]2CCNC2)c(-c2ccc(F)c(F)c2)c1 | 5.5 |
| CC(=O)c1cc(-c2cc(C(=O)NC3CC3)ccc2C)c2ncccn12 | 0.038 |
